Provide the recorded T/C for the entries that follow.
# Tested on: CD2F1 mice, L1210 leukemia ip, survival T/C
# assay.notes: NCI In Vivo Anticancer Drug Screen. Data for tumor model L1210 Leukemia (intraperitoneal) in CD2F1 (CDF1) mice
# test.conditions: endpoint: mean survival time; dose: 200.0 mg/kg/injection; schedule: Q01DX009 (ip); vehicle: saline with Tween-80; higher = longer survival
Toxic doses and inconclusive results are not listed.

COC(=O)C(Br)CCC(Br)C(=O)OC (centres undefined) = 103 % of control

List reported T/C for each of these molecules:
1. O=C1NC(=O)C2CCCCC12 (centres undefined)
2. Nc1cc(Cl)ccc1C(=O)O
3. COC(=O)C1=C(N)CCc2ccccc21
4. CCOC(=O)NC(O)C(Cl)(Cl)Cl (centres undefined)
5. CSc1ccc(O)c(C)c1

Result:
95 % of control
104 % of control
96 % of control
106 % of control
97 % of control

List reported T/C for each of these molecules:
1. CC1=NN(c2cc(Cl)c(S(=O)(=O)O)cc2Cl)C(=O)C1
2. CCOC(=O)CN1C(=O)c2ccccc2C1=O
3. Cc1cnc(Cl)c(Br)c1

Result:
1: 92 % of control; 2: 92 % of control; 3: 100 % of control

List reported T/C for each of these molecules:
1. CCOc1ccc(N2C(=O)CSC2=S)cc1
2. CCC(=O)/C(=C\c1ccccc1Cl)C(C)=O
3. COc1cc(Cl)ccc1NC(=O)Oc1ccc(C)cc1[N+](=O)[O-]
4. O=[N+]([O-])c1ccc2c(c1)CS(=O)(=O)O2
5. CC(=O)N(O)c1ccc2c(c1)Cc1ccccc1-2

Result:
1. 93 % of control
2. 97 % of control
3. 96 % of control
4. 107 % of control
5. 101 % of control

---

# System: CD2F1 mice, L1210 leukemia ip, survival T/C
# assay.notes: NCI In Vivo Anticancer Drug Screen. Data for tumor model L1210 Leukemia (intraperitoneal) in CD2F1 (CDF1) mice
# test.conditions: endpoint: mean survival time; dose: 12.5 mg/kg/injection; schedule: Q01DX009 (ip); vehicle: Klucel (hydroxypropylcellulose) (HPC); higher = longer survival
Inconclusive results and toxic doses are left out.
readout.type: T/C

FC(F)(F)c1cccc([PH+](c2cccc(C(F)(F)F)c2)c2cccc(C(F)(F)F)c2)c1.FC(F)(F)c1cccc([PH+](c2cccc(C(F)(F)F)c2)c2cccc(C(F)(F)F)c2)c1.[Cl][Hg][Cl] = 101 % of control

List reported T/C for each of these compounds:
1. COc1ccc2nc3cc(Cl)ccc3c(NCCNCCNCCNc3c4ccc(Cl)cc4nc4ccc(OC)cc34)c2c1
2. Cc1c(O)c2c(c(O)c1Cc1cccc(C#N)c1)C(=O)c1ccccc1C2=O
3. CN1CCc2c(c3ccccc3c3ccccc23)C1
4. Cc1ccc(S(=O)(=O)N2CCn3ncc(C#N)c32)cc1
5. O=S(=O)(NN=C(c1ccccc1)c1ccccc1)c1ccccc1
6. NNC(=O)c1ccc(-c2ccccc2)cc1

Result:
1: 101 % of control; 2: 89 % of control; 3: 97 % of control; 4: 98 % of control; 5: 96 % of control; 6: 102 % of control

---

# Test system: CD2F1 mice, L1210 leukemia ip, survival T/C
# assay.notes: NCI In Vivo Anticancer Drug Screen. Data for tumor model L1210 Leukemia (intraperitoneal) in CD2F1 (CDF1) mice
# test.conditions: endpoint: mean survival time; dose: 400.0 mg/kg/injection; schedule: Q04DX003 (ip); vehicle: Klucel (hydroxypropylcellulose) (HPC); higher = longer survival
Toxic doses and inconclusive results are not listed.
Provide the recorded T/C for the entries that follow.

Answered examples (2):
COc1cccc(CCCC(=O)O)c1 = 101 % of control
O=S(=O)(N=C1C(Cl)=C(Cl)C(=NS(=O)(=O)c2ccccc2)C(Cl)=C1Cl)c1ccccc1 = 93 % of control

List reported T/C for each of these compounds:
1. C(=N\Nc1nc2ccccc2s1)/c1ccccc1
2. CCOC(=O)c1nc2c(n(O)c1=N)CCC/C2=N\O
3. O=C(OCC1OCOC1C1OCOC1COC(=O)c1ccccc1)c1ccccc1 (stereo not given)

Result:
["92 % of control", "91 % of control", "91 % of control"]

---

# Test system: CD2F1 mice, L1210 leukemia ip, survival T/C
# assay.notes: NCI In Vivo Anticancer Drug Screen. Data for tumor model L1210 Leukemia (intraperitoneal) in CD2F1 (CDF1) mice
# test.conditions: endpoint: mean survival time; dose: 25.0 mg/kg/injection; schedule: Q04DX003 (ip); vehicle: saline; higher = longer survival
# Description: The antitumor activity of compounds was measured in mice bearing transplantable tumors. Survival or tumor size were measured and the results are expressed as the measurement made in the treated group (T) divided by the measurement made in the vehicle treated control group (C). The tumor model used in this assay is L1210 Leukemia (intraperitoneal) in CD2F1 (CDF1) mice
Toxic doses and inconclusive results are not listed.
readout.type: T/C

C[n+]1c2ccccc2cc2ccccc21 = 98 % of control
Nc1nc(=O)n(C2OC(CO)C(O)C2O)c(=O)[nH]1 (configuration not stated) = 95 % of control
CCC[CH2][Sn]([CH2]CCC)[CH2]CCC.CCC[CH2][Sn]([CH2]CCC)[CH2]CCC = 97 % of control
[NH-]C(CO)C(=O)O.[NH-]C(CO)C(=O)O.[Pd+2] (configuration not stated) = 103 % of control

List reported T/C for each of these compounds:
1. COC(=O)C(C)C(C)(O)C(C)(C)C (configuration not stated)
2. NC(=O)CC[n+]1ccccc1

Result:
1. 103 % of control
2. 97 % of control

Query: Recorded T/C for CCCCn1ccnc1C , please?
Result: 94 % of control

---

# Tested on: CD2F1 mice, L1210 leukemia ip, survival T/C
# assay.notes: NCI In Vivo Anticancer Drug Screen. Data for tumor model L1210 Leukemia (intraperitoneal) in CD2F1 (CDF1) mice
# test.conditions: endpoint: mean survival time; dose: 200.0 mg/kg/injection; schedule: Q01DX001 (ip); vehicle: other
# Description: The antitumor activity of compounds was measured in mice bearing transplantable tumors. Survival or tumor size were measured and the results are expressed as the measurement made in the treated group (T) divided by the measurement made in the vehicle treated control group (C). The tumor model used in this assay is L1210 Leukemia (intraperitoneal) in CD2F1 (CDF1) mice
Inconclusive results and toxic doses are left out. Rule for the calls: active = survival T/C of 150% or more; inactive = T/C below 125% in these data.
Select the correct class. Options are label 1 for active, label 0 for inactive and nothing else.

Examples from the recorded data:
CN(C)P(=O)(OCCCOCc1ccccc1)N(CCCl)CCCl (centres undefined) = label 0
Cc1c2ccncc2c(C)c2c1[nH]c1ccccc12 = label 1

Query: recorded result category for S=c1cn[nH]c2ccc(Br)cc12 in this test
Result: label 0

Query: Try this molecule next: O=P1(N(CCCl)CCCl)NCCCO1 (centres undefined)
Result: label 1

---

# Test system: CD2F1 mice, L1210 leukemia ip, survival T/C
# assay.notes: NCI In Vivo Anticancer Drug Screen. Data for tumor model L1210 Leukemia (intraperitoneal) in CD2F1 (CDF1) mice
# test.conditions: endpoint: mean survival time; dose: 400.0 mg/kg/injection; schedule: Q01DX009 (ip); vehicle: saline with Tween-80; higher = longer survival
Inconclusive results and toxic doses are left out.
Provide the recorded T/C for the entries that follow.

c1ccc(CCCCc2ccc3ccccc3n2)cc1 = 98 % of control

List reported T/C for each of these molecules:
1. CC(C)(C)c1ccc(OS(=O)(=O)c2cccc([N+](=O)[O-])c2)cc1
2. CCCCCCCCCCCCCCCCCCOCCCCCCCCCCCCCCCCCC
3. O=[N+]([O-])c1ccccc1-c1cc(-c2ccccc2)nn1-c1ccccc1
4. CN1CN(C2CCCCC2)CSC1=S
5. O=C(O)/C(=C\c1ccccc1)c1ccccc1
6. C=CCC(C)(C#N)C1C=CCC1 (stereo not drawn)

Result:
94 % of control
93 % of control
97 % of control
106 % of control
95 % of control
103 % of control

---

# System: CD2F1 mice, L1210 leukemia ip, survival T/C
# assay.notes: NCI In Vivo Anticancer Drug Screen. Data for tumor model L1210 Leukemia (intraperitoneal) in CD2F1 (CDF1) mice
# test.conditions: endpoint: mean survival time; dose: 200.0 mg/kg/injection; schedule: Q04DX003 (ip); vehicle: saline with Tween-80; higher = longer survival
Toxic doses and inconclusive results are not listed.
readout.type: T/C

List reported T/C for each of these compounds:
1. Cc1c(NC(=O)Nc2cc([N+](=O)[O-])ccc2Cl)c(=O)n(-c2ccccc2)n1C
2. CC(=O)OC(c1ccccc1)C(Cl)(Cl)Cl (centres undefined)
3. CN(C)/C=N/N=C1c2ccccc2-c2ccccc21
4. CSc1ccc(O)c(C)c1

Result:
1: 104 % of control; 2: 105 % of control; 3: 94 % of control; 4: 102 % of control

List reported T/C for each of these compounds:
1. C[n+]1csc2ccccc21
2. CC(=O)c1cccc2cccc([N+](=O)[O-])c12
3. COc1ccc(C2C(C(C)=O)=C(C)NC(C)=C2C(C)=O)cc1
4. Cc1ccc(S(=O)(=O)Nc2ccccc2-c2nc3cc(Cl)ccc3c(=O)o2)cc1
5. Cc1c(F)c(F)c(C(=O)O)c(F)c1F
6. OCc1ccc(Cl)c(Cl)c1

Result:
["103 % of control", "102 % of control", "87 % of control", "98 % of control", "101 % of control", "102 % of control"]

List reported T/C for each of these compounds:
1. O=C(Nc1cc(S(=O)(=O)O)ccc1Oc1ccccc1Cl)Nc1cc(S(=O)(=O)O)ccc1Oc1ccccc1Cl
2. C/C=C(\C)c1cc(=O)c2c(C)cc3c(c2o1)C(OC)(OC(C)=O)c1c(O)c(C2CC(C)(N(C)C)C(OC(C)=O)C(C)O2)cc(C2CC(N(C)C)C(OC(C)=O)C(C)O2)c1C3=O (centres undefined)

Result:
["95 % of control", "97 % of control"]

List reported T/C for each of these compounds:
1. Cc1cc(=O)[nH]c(N/N=C/c2ccc(N(C)C)cc2)n1
2. OC1COC(C(F)(F)F)(C(F)(F)F)C1 (centres undefined)

Result:
1. 95 % of control
2. 93 % of control

List reported T/C for each of these compounds:
1. CC(=O)Nc1cccc(OCCCOc2cccc([N+](=O)[O-])c2)c1
2. CC(=O)OC1C(OC(C)=O)C2C(C)(C)CCCC2(C)C2Cc3occc3C(C)C12 (centres undefined)
3. CCC12C(=O)C(CC)(C3=C1c1cccc4cccc3c14)C1C(=O)OC(=O)C12 (centres undefined)
4. COc1ccc(Nc2ccccc2Cl)c(C(=O)O)c1
5. O=[N+]([O-])c1cccc(-c2nn[nH]n2)c1

Result:
95 % of control
96 % of control
97 % of control
102 % of control
97 % of control
